- Test system: Pseudomonas aeruginosa
- assayName: In vivo efficacy against Pseudomonas aeruginosa 5007 in mouse protection test after subcutaneous administration
- Assay type: functional
- studyConditions: Pseudomonas aeruginosa, sc; read-out: ED50
assayMetric: ED50 (mg/kg)

| compound | assayMetric | inequalityOperator | recordedMeasurement |
| --- | --- | --- | --- |
| Cc1c(N2C[C@H]3CCN[C@H]3C2)c(F)cn2c(=O)c(C(=O)O)cc(C3CC3)c12 | ED50 | = | 18 |
| Cc1c(N2CC[C@H](N)C2)c(F)cn2c(=O)c(C(=O)O)cc(C3CC3)c12 (stereo in doubt; 3i) | ED50 | = | 0.5 |
| Cc1c(N2CC[C@H](NC3CC3)C2)c(F)cn2c(=O)c(C(=O)O)cc(C3CC3)c12 | ED50 | > | 32 |
| Cc1c(N2CC[C@@H]3NCCC[C@@H]32)c(F)cn2c(=O)c(C(=O)O)cc(C3CC3)c12 | ED50 | > | 32 |
| CCCN[C@H]1CCN(c2c(F)cn3c(=O)c(C(=O)O)cc(C4CC4)c3c2C)C1 | ED50 | > | 8 |
| Cc1c(N2C[C@@H]3CCN[C@@H]3C2)c(F)cn2c(=O)c(C(=O)O)cc(C3CC3)c12 (stereo in doubt; 3gg) | ED50 | = | 6.4 |
| Cc1c(N2CCC[C@@H](NC3CC3)C2)c(F)cn2c(=O)c(C(=O)O)cc(C3CC3)c12 | ED50 | > | 32 |
| CCN[C@H]1CCN(c2c(F)cn3c(=O)c(C(=O)O)cc(C4CC4)c3c2C)C1 | ED50 | > | 8 |
| Cc1c(N2C[C@H]3CNC[C@H]3C2)c(F)cn2c(=O)c(C(=O)O)cc(C3CC3)c12 | ED50 | = | 6.4 |
| CN[C@@H]1CN(c2c(F)cn3c(=O)c(C(=O)O)cc(C4CC4)c3c2C)C[C@H]1C (stereo in doubt; 3v) | ED50 | = | 16.1 |

* * *

- System: Burkholderia cepacia
- assayName: In vitro antibacterial activity against gram negative Pseudomonas cepacia 2961
- Type: functional
- studyConditions: Burkholderia cepacia; read-out: MIC
Entries and their measured MIC follow.

| compound | studySystem | MIC [µg/mL] |
| --- | --- | --- |
| CCCN[C@H]1CCN(c2c(F)cn3c(=O)c(C(=O)O)cc(C4CC4)c3c2C)C1 | Burkholderia cepacia | 3.1 |
| Cc1c(N2CCC[C@H](NC3CC3)C2)c(F)cn2c(=O)c(C(=O)O)cc(C3CC3)c12 | Burkholderia cepacia | 0.78 |
| Cc1c(N2CCCCC2)c(F)cn2c(=O)c(C(=O)O)cc(C3CC3)c12 | Burkholderia cepacia | 3.1 |
| O=C(O)c1cn(C2CC2)c2cc(N3CCNCC3)c(F)cc2c1=O | Burkholderia cepacia | 6.2 |
